Values of pKi for Receptor-type tyrosine-protein phosphatase C (Homo sapiens, UniProt P08575), collected from a number of published sources:
Biological target: Receptor-type tyrosine-protein phosphatase C (Homo sapiens, UniProt P08575)
Sequence (P08575 whole entry): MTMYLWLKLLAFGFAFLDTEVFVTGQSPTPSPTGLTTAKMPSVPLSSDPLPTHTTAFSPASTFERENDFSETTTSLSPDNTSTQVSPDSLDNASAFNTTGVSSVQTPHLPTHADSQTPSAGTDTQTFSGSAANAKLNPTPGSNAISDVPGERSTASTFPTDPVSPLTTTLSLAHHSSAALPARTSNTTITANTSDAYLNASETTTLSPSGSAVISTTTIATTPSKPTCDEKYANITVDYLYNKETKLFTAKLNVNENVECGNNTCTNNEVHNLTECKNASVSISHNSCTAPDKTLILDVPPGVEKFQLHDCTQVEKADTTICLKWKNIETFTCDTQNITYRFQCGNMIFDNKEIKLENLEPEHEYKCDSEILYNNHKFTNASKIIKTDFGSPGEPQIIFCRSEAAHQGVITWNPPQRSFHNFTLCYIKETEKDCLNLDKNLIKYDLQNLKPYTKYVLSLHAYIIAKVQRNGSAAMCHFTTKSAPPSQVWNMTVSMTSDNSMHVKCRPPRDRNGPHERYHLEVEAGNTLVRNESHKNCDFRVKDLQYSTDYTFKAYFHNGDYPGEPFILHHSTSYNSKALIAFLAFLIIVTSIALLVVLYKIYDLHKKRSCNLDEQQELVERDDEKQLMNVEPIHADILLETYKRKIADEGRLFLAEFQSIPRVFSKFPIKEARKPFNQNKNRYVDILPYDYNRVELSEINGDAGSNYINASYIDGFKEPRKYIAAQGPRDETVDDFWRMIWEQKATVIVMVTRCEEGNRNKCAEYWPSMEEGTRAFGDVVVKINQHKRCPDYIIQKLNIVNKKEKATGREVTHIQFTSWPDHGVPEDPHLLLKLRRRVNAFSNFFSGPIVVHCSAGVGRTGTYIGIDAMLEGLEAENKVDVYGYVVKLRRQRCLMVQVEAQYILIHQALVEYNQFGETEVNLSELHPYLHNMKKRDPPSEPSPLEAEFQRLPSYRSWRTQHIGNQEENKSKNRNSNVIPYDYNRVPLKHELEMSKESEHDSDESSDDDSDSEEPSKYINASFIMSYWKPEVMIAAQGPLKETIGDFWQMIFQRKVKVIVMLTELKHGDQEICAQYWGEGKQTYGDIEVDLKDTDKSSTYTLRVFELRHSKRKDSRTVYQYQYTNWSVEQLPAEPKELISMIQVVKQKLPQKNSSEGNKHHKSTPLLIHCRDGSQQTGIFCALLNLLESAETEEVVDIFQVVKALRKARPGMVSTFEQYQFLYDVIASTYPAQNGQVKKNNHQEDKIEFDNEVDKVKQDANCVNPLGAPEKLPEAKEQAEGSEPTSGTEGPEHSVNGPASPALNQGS
pKi here: minus log base 10 of the concentration, concentration in moles per litre.

As a guide, the following entries are already answered.
SMI: O=C(O)C(=O)Nc1ccc(I)cc1C(=O)O
pKi: 4.31
//
SMI: O=C(O)COc1c(C(=O)O)sc(-c2ccc(NC(=O)c3cccnc3)cc2)c1Br
pKi: 4.26
//
SMI: O=C(O)C(=O)Nc1cc2[nH]ccc2cc1C(=O)O
pKi: 4.25
//
SMI: O=C(O)C(=O)Nc1cc2ccccc2cc1C(O)O
pKi: 4.43
//
SMI: O=C(O)COc1c(C(=O)O)sc(-c2ccc(NC(=O)CC(=O)O)cc2)c1Br
pKi: 4.48
//
SMI: O=C(O)C(=O)Nc1sc2c(c1C(=O)O)CCNC2
pKi: 4.23
//
SMI: O=C(O)C(=O)Nc1sc2c(c1C(=O)O)CCN(CCc1ccccc1)C2
pKi: 2.85

// moving on: another record for pKi
Could you tell me which pKi is on file for `O=C(O)C(=O)Nc1sccc1C(=O)O` ? 3.68
